Parameter SPOT peptide array binding signal intensity: see the listing below.
- systemTested: SpBbc1
- methodDescription: SPOT peptide array binding signal intensity (averaged, normalized) (arbitrary units (background-subtracted, floor 0; scale differs between SH3 domains)); higher = stronger binding of the SH3 domain to the peptide
Quick one: just the number, no unit, thanks!

Some entries whose results are on file:
{"columns": ["binder", "valueReported"],
 "data": [
  ["SRQAIPPPVPNRPGG", 723],
  ["TIRRRAPLSLLESHT", 1],
  ["KRKRRLPVSEDTNTK", 3]
]}

Provide measured SPOT peptide array binding signal intensity value, entry: RLSFFFPLDPAYIRN 0.5

Give me measured SPOT peptide array binding signal intensity, please, for this binder: ERPKRRAPPPVPKKP 76

Please report the measured SPOT peptide array binding signal intensity for NRLRKRLNLPSEISI 6
